Target: recombinant human cIAP2-BIR3 protein (Homo sapiens, UniProt Q13489)
Construct: recombinant human cIAP2-BIR3 protein; purchased Reaction biology APT-11-372
Sequence (Q13489 238-349 limits assumed): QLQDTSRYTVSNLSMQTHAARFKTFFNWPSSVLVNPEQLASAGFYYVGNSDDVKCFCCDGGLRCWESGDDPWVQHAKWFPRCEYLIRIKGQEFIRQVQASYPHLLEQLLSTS
Assay: Recombinant human c-IAP2-BIR3 biochemical assay (HTRF, peptide displacement)
Conditions: 3.7 nM cIAP2-BIR3, 3.7 nM AbuRPF-K(5-Fam)-NH2 peptide, read-out: Protein binding IC50 (nM) c-IAP2
Counter-ions that a name gives are not always drawn.
For each entry below, report its IC50 value.
One number for each entry, in nM.

Look over these answered cases.
[[record]]
compound = "C[C@@H]1CN(CC(=O)N2c3cc(Cc4ccc(F)cc4)c(NC4CC4)nc3OC[C@@H]2C)[C@@H](CN2[C@H](C)COC[C@H]2C)CN1 [Compound 110]"
experimental_value = 0.75

[[record]]
compound = "C[C@@H]1CN(CC(=O)N2CCOc3nc(C(N)=O)c(Cc4ccc(F)cc4)cc32)[C@@H](CN2CCOC[C@H]2C)CN1 [Compound 3, formate]"
experimental_value = 3.2

[[record]]
compound = "C[C@@H]1CN(CC(=O)N2c3cc(Cc4ccc(F)cc4)c(CO)nc3OC[C@@H]2C)[C@@H](CN2[C@H](C)CN(C)C[C@H]2C)CN1 [Compound 105]"
experimental_value = 0.35

[[record]]
compound = "C[C@@H]1CN(CC(=O)N2c3cc(Cc4ccc(F)cc4)c(CO)nc3OC[C@@H]2C)[C@@H](CN2CCOC[C@@H]2C2CC2)CN1 [Example 84B]"
experimental_value = 1.6

[[record]]
compound = "C[C@@H]1CN(CC(=O)N2c3cc(Cc4ccc(F)cc4)cnc3OC[C@@H]2C2CCCCC2)[C@@H](CN2CCOC[C@H]2C)CN1 [Compound 42]"
experimental_value = 0.52


Look up IC50 for the entries below, preserving their order.
1. CC(C)OC[C@H]1COc2ncc(Cc3ccc(F)cc3)cc2N1C(=O)CN1C[C@@H](C)NC[C@@H]1CN1CCOC[C@H]1C [Compound 38]
2. C[C@@H]1CN(CC(=O)N2c3cc(Cc4ccc(F)cc4)cnc3OC[C@@H]2c2ccccc2)[C@@H](CN2CCOC[C@H]2C)CN1 [Compound 45]
3. C[C@@H]1CN(CC(=O)N2c3cc(Cc4ccc(F)cc4)c(CO)nc3OC[C@@H]2C)[C@@H](CN2C3CCC2COC3)CN1 [Compound 86]
4. C[C@@H]1CN(CC(=O)N2c3cc(Cc4ccc(F)cc4)c(C(N)=O)nc3OC[C@@H]2C)[C@@H](CN2CCOC[C@H]2C(F)F)CN1 [Example 82]
5. C[C@@H]1CN(CC(=O)N2c3cc(Cc4ccc(F)cc4)cnc3OC[C@@H]2C2CC2)[C@@H](CN2CCOC[C@H]2C)CN1 [Compound 26]
6. C[C@@H]1CN(CC(=O)N2c3cc(Cc4ccc(F)cc4F)c(C(N)=O)nc3OC[C@@H]2C)[C@@H](CN2[C@H](C)COC[C@H]2C)CN1 [Example 83]
7. C[C@@H]1CN(CC(=O)N2c3cc(Cc4ccc(F)cc4)cnc3OC[C@@H]2c2ccccc2)[C@@H](CN2[C@H](C)COC[C@H]2C)CN1 [Compound 44]

[0.83, 0.65, 0.95, 0.73, 1.13, 0.4, 0.93]
